# inhibition per entry
# Tested on: methionyl-tRNA synthetase (Trypanosoma brucei brucei)
# experiment notes: T. brucei MetRS aminoacylation inhibitors, late-stage follow-up, counter-screen for T. brucei MetRS inhibitor project, biochemical, radioactivity, assay provider (AID 720623)
# reported conditions: Recombinant T. brucei MetRS enzyme, [3H]methionine tRNA aminoacylation, filter scintillation, 120 min; at 10 µM; stronger effect = higher value

# annotated cases, reported inhibition shown
{"columns": ["compound", "inhibition"],
 "data": [
  ["O=C(NCc1nc2ccccc2[nH]1)C1=C[C@H](c2ccc(Br)cc2)C[C@H](OCc2ccc(CO)cc2)O1", "94.6%"],
  ["Oc1c(Cl)cc(Cl)cc1CNc1nc2ccccc2[nH]1", "98.7%"],
  ["CC(=O)c1ccc(N2CCN(C(=O)CCCn3c(=O)[nH]c4ccc(Br)cc4c3=O)CC2)cc1", "97%"],
  ["Clc1ccc(-c2nnc(SCc3nc4ccccc4[nH]3)o2)c(Cl)c1", "97%"],
  ["O=C1CC(N(CCc2ccccc2)C(=S)Nc2ccccc2)C(=O)N1c1ccc(Br)cc1 (configuration not stated)", "97.3%"]
]}

Suppose we examine the compound Cc1[nH]c2ccc(Br)cc2c(=O)c1CN1CCCCCC1 ; what inhibition value has been reported?
86.6%

Suppose we examine the compound CC(C)(C)[C@H]1C=C(C(=O)NCc2nc3ccccc3[nH]2)O[C@@H](OCc2ccc(CO)cc2)C1 ; what inhibition value has been reported?
83.8%
